- Test system: NCI-H460 lung
- assay_summary: NCI-60 one-dose screen, 48 h
- settings: 10 µM unless noted
The panel holds about 83,000 compounds, 20% with a hit somewhere; the sample as a whole holds those more often. The source made the active and inactive calls. Rule for the calls: active = growth percent below 10; inactive = the rest.
Outcome codes: 1 = active, 0 = inactive

compound	assigned_class
NS(=O)(=O)c1ccc(-n2nc(-c3ccccc3)ccc2=O)cc1	0
Cc1ccc(C(=O)/C(=C/c2ccc([N+](=O)[O-])cc2)S(=O)Cc2ccccc2)cc1 (stereo not given)	0
O=C(/C(=C\c1c(-c2ccccc2)[nH]c2ccccc12)S(=O)(=O)c1ccccc1)c1ccccc1	0
C[C@@H]1C(=O)[C@@H]2C[C@@H](O)[C@@H](O)C[C@]2(C)[C@H]2CC[C@@]3(C)C(=C12)CC[C@@H]3[C@@](C)(O)[C@H](O)CCC(C)(C)O	0
O=C(O)C(C(=O)O)c1cccc2ccccc12	0
COc1ccc(Nc2nc(SCC(C)C)nc(-c3ccc(F)cc3)c2C#N)cc1	0
COc1cc(/C=C/C(=O)c2cccs2)ccc1OCc1ccc(Cl)nc1	0
CN(C)[C@@H]1C(=O)C(C(N)=O)=C(O)[C@@]2(O)C(=O)C3=C(O)c4c(O)cc(CN5CCc6ccccc6C5)c(Cl)c4C[C@H]3C[C@@H]12	1
CS(=O)(=O)O[C@@H]1C(=O)N(c2cc3c4ccccc4ccc3c3ccccc23)[C@H]1c1ccc(F)cn1	0
C=C(C)[C@@H]1CC[C@]2(C(=O)OCCOCCOCC[P+](c3ccccc3)(c3ccccc3)c3ccccc3)CC[C@]3(C)[C@H](CC[C@@H]4[C@@]5(C)CC[C@H](OC(C)=O)C(C)(C)[C@@H]5CC[C@]43C)[C@@H]12	1
O=C1c2ccccc2C(=O)c2c1oc1c2c(=O)[nH]c2ccc(Cl)cc21	1
CC(C)C1=C[C@@]23CC[C@H]4[C@](C)(COCCC#N)CCC[C@]4(C)[C@H]2C[C@@H]1[C@@H]1[C@H]3[C@@H](OCCC#N)CC[C@@H]1OCCC#N	0
COC(=O)CCc1cc(O)c2c(c1)[C@@H](C(=O)OC)[C@H](c1ccc(O)c(O)c1)O2	0
c1ccc(Sc2ncccn2)nc1	0
NS(=O)(=O)c1ccc(-n2ncc(NC(=O)Nc3ccc(S(=O)(=O)Nc4nccs4)cc3)c2-c2ccccc2)cc1	0
O=C1C(=O)c2c(nc3ccc(Br)cn23)-c2ccccc21	1
CN1C(=O)c2cc(Cl)nc3c(NC(=O)c4cccc(Cl)c4)c(Cl)c(NC(=O)c4cccc(Cl)c4)c1c23	1
COC(=O)CCc1n(Cc2ccc3ccccc3c2)c2ccccc2[n+]1Cc1ccc2ccccc2c1	1
CCOC(=O)c1sc(/N=C2\NC(=O)/C(=C/c3ccc(N4CCN(C)CC4)cc3)S2)nc1C	0
CCOC(=O)CC[C@H](NC(=O)c1ccc(NC)c2ccccc12)C(=O)OCC	0
CC(C)(C)c1nn(-c2ccccc2)c2c1COCN2Cc1ccc(Cl)cc1	0
C#Cc1ccccc1NC(=O)c1sc2nc3c(cc2c1N)CCCCCC3	0
CN1CCN(/C=C2\CC(C(=O)NCc3ccc(Cl)cc3Cl)NC2=O)CC1 (stereo not given)	0
CC[C@]12C=CCN3CC[C@@]4(c5ccc(OC)cc5N(C)[C@H]4[C@@](O)(C(=O)OC)[C@@H]1OC(=O)CCC(=O)O[C@H]1CC[C@H]4[C@@H]5CC[C@H]6CC(=O)CC[C@]6(C)[C@H]5CC[C@]14C)[C@@H]32	0
CCOCCc1c(O)nc(SC)[nH]c1=O	0
CC1CCN(CCCCCOc2ccc3oc4cc(Cl)ccc4c(=O)c3c2)CC1	0
CCOCc1nc2ccccc2c(=O)[nH]1	0
CN1CC=C(c2cc(NC(=O)Nc3ccc(Oc4ccnc(NC(=O)C5CC5)c4)c(F)c3)cc(C(F)(F)F)c2)CC1	1
COCCc1n(Cc2ccc3ccccc3c2)c2ccccc2[n+]1Cc1ccc2ccccc2c1	1
N#Cc1nc(-c2ccccc2)oc1S(=O)(=O)NCC(c1ccc(Cl)cc1)N1CCCCC1 (stereo not given)	0
O=C(Nc1cc(Br)ccn1)c1cc2cc(Nc3nc(-c4ccccc4)nc4ccccc34)ccc2oc1=O	0
O=C1c2ccccc2C(=O)c2c1oc1c2c(=O)[nH]c2ccccc21	0
COc1ccc(-c2cc(-c3nnc(SCC(=O)Nc4ccc(/C(C)=N\O)cc4)n3-c3ccccc3)c3cc(OC)ccc3n2)cc1	0
C#CCOC(=O)[C@]1(C)CCC[C@]2(C)[C@H]3C[C@H]4C(C(C)C)=C[C@]3(CC[C@H]21)[C@@H]1C(=O)CCC(=O)[C@@H]14	0
CC(=O)c1cc2c(N)c(C(=O)Nc3ccccn3)sc2nc1C	0
